Measured Post-emergence action against BRSNW (crop plant compatibility) of individual entries
# Tested on: Brassica napus (BRSNW)
# Test: Post-emergence crop plant compatibility, greenhouse pot test
# Type: in vivo
# Condition Parameters: 1.25 g/ha, vs untreated controls
Enter the number, and then the unit.

Compound	System	Result
COCCCOC(=O)COc1ccccc1Sc1cc(-n2c(=O)cc(C(F)(F)F)n(C)c2=O)c(F)cc1Cl [I.1-26]	Brassica napus (BRSNW)	20%
CCOCCOC(=O)C(C)Oc1ccccc1Sc1cc(-n2c(=O)cc(C(F)(F)F)n(C)c2=O)c(F)cc1Cl (racemic) [I.2-2]	Brassica napus (BRSNW)	10%
COCCOCCOC(=O)COc1ccccc1Sc1cc(-n2c(=O)cc(C(F)(F)F)n(C)c2=O)c(F)cc1Cl [I.1-23]	Brassica napus (BRSNW)	20%
Cn1c(C(F)(F)F)cc(=O)n(-c2cc(Oc3ccccc3OCC(=O)OC3COC3)c(Cl)cc2F)c1=O [I.7-115]	Brassica napus (BRSNW)	20%
Cn1c(C(F)(F)F)cc(=O)n(-c2cc(Oc3ccccc3OCC(=O)OCc3ccccn3)c(Cl)cc2F)c1=O [I.7-276]	Brassica napus (BRSNW)	20%
CC(Oc1ccccc1Sc1cc(-n2c(=O)cc(C(F)(F)F)n(C)c2=O)c(F)cc1Cl)C(=O)OCCO (racemic) [I.2-58]	Brassica napus (BRSNW)	20%

The record that follows has no Post-emergence action against BRSNW (crop plant compatibility) shown yet.
# lookup: Post-emergence action against BRSNW (crop plant compatibility) of CC(Oc1ccccc1Sc1cc(-n2c(=O)cc(C(F)(F)F)n(C)c2=O)c(F)cc1Cl)C(=O)OCC1CCCO1 (mixture of isomers) [I.2-71] 10%

====

Measured Post-emergence action at 1.25 g/ha against ABUTH in %, listed per entry for reference.
# Tested on: Abutilon theophrasti (ABUTH)
# Test: Post-emergence herbicidal action, greenhouse pot test
# Assay type: in vivo
# Condition Parameters: 1.25 g/ha, rated visually after about 3 weeks vs untreated controls, 100% = plants have died
Provide the reading as a plain figure in %.

Some compounds with recorded Post-emergence action at 1.25 g/ha against ABUTH in %:
Compound	Numeric Readout
Cn1c(C(F)(F)F)cc(=O)n(-c2cc(Oc3cc(F)ccc3OCC(=O)OCC#N)c(Cl)cc2F)c1=O	80
COCCOCCOC(=O)COc1ccccc1Oc1cc(-n2c(=O)cc(C(F)(F)F)n(C)c2=O)c(F)cc1Cl	100
Cn1c(C(F)(F)F)cc(=O)n(-c2cc(Sc3ccccc3OCC(=O)OCC3CCOC3)c(Cl)cc2F)c1=O (racemic)	100

As a next step, examine the compound that follows.
Recorded Post-emergence action at 1.25 g/ha against ABUTH in % for "Cn1c(C(F)(F)F)cc(=O)n(-c2cc(Oc3ccccc3OCC(=O)OCCOC(F)(F)F)c(Cl)cc2F)c1=O" with Abutilon theophrasti (ABUTH), please? 100

====

Post-emergence action against TRZAS (crop plant compatibility) for assorted compounds
# System: Triticum aestivum (TRZAS)
# Test: Post-emergence crop plant compatibility, greenhouse pot test
# Format: in vivo
# Condition Parameters: 1.25 g/ha, vs untreated controls
Output should be the measured figure followed by the unit it is expressed in.

Cn1c(C(F)(F)F)cc(=O)n(-c2cc(Oc3c(F)cccc3OCC(=O)OCc3ccccn3)c(Cl)cc2F)c1=O 20%
COCCOCCOC(=O)COc1cccc(F)c1Oc1cc(-n2c(=O)cc(C(F)(F)F)n(C)c2=O)c(F)cc1Cl 10%

I'd like to know its Post-emergence action against TRZAS (crop plant compatibility). The compound in question is "COCCOCCOC(=O)COc1ccccc1Oc1cc(-n2c(=O)cc(C(F)(F)F)n(C)c2=O)c(F)cc1[N+](=O)[O-]" 10%

Input "COCCOCCOC(=O)COc1ccccc1Oc1cc(-n2c(=O)cc(C(F)(F)F)n(C)c2=O)c(F)cc1C#N" 0%

And the next one, "CCOCCOC(=O)COc1ccccc1Oc1cc(-n2c(=O)cc(C(F)(F)F)n(C)c2=O)c(F)cc1[N+](=O)[O-]" ? 20%

====

# System: Viola tricolor (VIOTR)
# Test: Post-emergence herbicidal action, greenhouse pot test
# Type: in vivo
# Condition Parameters: 1.25 g/ha
Measured Post-emergence action against VIOTR accompanies every entry in the list below.
Respond with the bare value in %.

Worked cases, Post-emergence action against VIOTR given:
Molecule	Readout Units	Numeric Readout
Cn1c(C(F)(F)F)cc(=O)n(-c2cc(Oc3cc(F)ccc3OCC(=O)OCc3ccccn3)c(Cl)cc2F)c1=O [I.23-276]	%	80
CCOCCOC(=O)COc1ccccc1Oc1cc(-n2c(=O)cc(C(F)(F)F)n(C)c2=O)c(F)cc1C#N [I.9-2]	%	100
Cn1c(C(F)(F)F)cc(=O)n(-c2cc(Oc3ccccc3OCC(=O)OC3COC3)c(Cl)cc2F)c1=O [I.7-115]	%	100
Cn1c(C(F)(F)F)cc(=O)n(-c2cc(Oc3ccccc3OCC(=O)OCc3cccnn3)c(Br)cc2F)c1=O [I.8-291]	%	100

Give its Post-emergence action against VIOTR value. Item: CCOCCOC(=O)COc1ccccc1Oc1cc(-n2c(=O)cc(C(F)(F)F)n(C)c2=O)c(F)cc1[N+](=O)[O-] [I.6-2] 100

Can you check Cn1c(C(F)(F)F)cc(=O)n(-c2cc(Oc3cc(F)ccc3OCC(=O)OCC#N)c(Cl)cc2F)c1=O [I.23-176] next? 90

====

# Tested on: Zea mays (ZEAMX)
# Test: Post-emergence crop plant compatibility, greenhouse pot test
# Assay type: in vivo
# Condition Parameters: 1.25 g/ha, vs untreated controls
# Protocol: Seeds of monocotyledonous and dicotyledonous weeds and crop plants were placed in sandy loam in plastic or wood-fiber pots, covered with soil and cultivated in a greenhouse under controlled growth conditions. 2 to 3 weeks after sowing, the test plants were treated at the one-leaf stage. […]
Outcome Measure: Post-emergence action against ZEAMX (crop plant compatibility) (%)
Respond numerically; units are % and should not be typed.

Examples with answers:
Compound	Numeric Readout
COCCOC(=O)C(C)Oc1ccccc1Sc1cc(-n2c(=O)cc(C(F)(F)F)n(C)c2=O)c(F)cc1Cl (racemic)	10
COCCOC(=O)COc1ccc(F)cc1Oc1cc(-n2c(=O)cc(C(F)(F)F)n(C)c2=O)c(F)cc1Cl	20
COCCOC(=O)COc1ccccc1Oc1cc(-n2c(=O)cc(C(F)(F)F)n(C)c2=O)c(F)cc1Cl	20
Cn1c(C(F)(F)F)cc(=O)n(-c2cc(Oc3c(F)cccc3OCC(=O)OCc3ccccn3)c(Cl)cc2F)c1=O	20
CCOCCOC(=O)COc1ccccc1Oc1cc(-n2c(=O)cc(C(F)(F)F)n(C)c2=O)c(F)cc1[N+](=O)[O-]	20

Entry "Cn1c(C(F)(F)F)cc(=O)n(-c2cc(Oc3ccccc3OCC(=O)OCc3cccnn3)c(Cl)cc2F)c1=O" has what Post-emergence action against ZEAMX (crop plant compatibility)? 10

Repeat with "Cn1c(C(F)(F)F)cc(=O)n(-c2cc(Oc3ccccc3OCC(=O)OCCOC(F)(F)F)c(Br)cc2F)c1=O" 20

====

# System: Viola tricolor (VIOTR)
# Test: Post-emergence herbicidal action, greenhouse pot test
# Type: in vivo
# Condition Parameters: 1.25 g/ha
Outcome Measure: Post-emergence action against VIOTR
Report as: number unit

Recorded results for 3 molecules are shown here.
Molecule	Post-emergence action against VIOTR
COCCOC(=O)COc1ccccc1Oc1cc(-n2c(=O)cc(C(F)(F)F)n(C)c2=O)c(F)cc1C#N [I.9-1]	100%
COCCOCCOC(=O)COc1ccc(F)cc1Oc1cc(-n2c(=O)cc(C(F)(F)F)n(C)c2=O)c(F)cc1Cl [I.23-23]	100%
Cn1c(C(F)(F)F)cc(=O)n(-c2cc(Oc3ccccc3OCC(=O)OCc3ccncc3)c(Cl)cc2F)c1=O [I.7-278]	90%

Turning to the following molecule.
Provide value of Post-emergence action against VIOTR for this record tested with Viola tricolor (VIOTR): Cn1c(C(F)(F)F)cc(=O)n(-c2cc(Oc3ccccc3OCC(=O)OCCOC(F)(F)F)c([N+](=O)[O-])cc2F)c1=O [I.6-41] 100%

====

# Lookup of reported Post-emergence action against TRZAS (crop plant compatibility) keyed by entry
# System: Triticum aestivum (TRZAS)
# Test: Post-emergence crop plant compatibility, greenhouse pot test
# Assay type: in vivo
# Condition Parameters: 1.25 g/ha, vs untreated controls
State just the number; it will be interpreted in %.

Molecule	Numeric Readout
COCCOCCOC(=O)COc1ccccc1Oc1cc(-n2c(=O)cc(C(F)(F)F)n(C)c2=O)c(F)cc1Br [I.8-23]	10

Name the recorded Post-emergence action against TRZAS (crop plant compatibility) for Cn1c(C(F)(F)F)cc(=O)n(-c2cc(Oc3ccccc3OCC(=O)OCCOC(F)(F)F)c(Cl)cc2F)c1=O [I.7-41] . 0

Repeat with Cn1c(C(F)(F)F)cc(=O)n(-c2cc(Oc3ccccc3OCC(=O)OCC[N+](=O)[O-])c([N+](=O)[O-])cc2F)c1=O [I.6-183] 0

Then this molecule: CCOCCOC(=O)COc1ccccc1Oc1cc(-n2c(=O)cc(C(F)(F)F)n(C)c2=O)c(F)cc1C#N [I.9-2] 20

Same for CCOCCOC(=O)COc1ccccc1Oc1cc(-n2c(=O)cc(C(F)(F)F)n(C)c2=O)c(F)cc1Cl [I.7-2] 20

Now the molecule Cn1c(C(F)(F)F)cc(=O)n(-c2cc(Oc3ccccc3OCC(=O)OCC#N)c([N+](=O)[O-])cc2F)c1=O [I.6-176] 20

Further, for COCCOC(=O)COc1ccccc1Sc1cc(-n2c(=O)cc(C(F)(F)F)n(C)c2=O)c(F)cc1Cl [I.1-1] ? 20

Subsequent entry: CC(Oc1ccccc1Sc1cc(-n2c(=O)cc(C(F)(F)F)n(C)c2=O)c(F)cc1Cl)C(=O)OCC1CCOC1 (mixture of isomers) [I.2-72] 20

Now consider Cn1c(C(F)(F)F)cc(=O)n(-c2cc(Oc3cc(F)ccc3OCC(=O)OCC#N)c(Cl)cc2F)c1=O [I.23-176] . 10

Another molecule: COCCOC(=O)COc1ccccc1Oc1cc(-n2c(=O)cc(C(F)(F)F)n(C)c2=O)c(F)cc1Br [I.8-1] 20

Another molecule: Cn1c(C(F)(F)F)cc(=O)n(-c2cc(Oc3ccccc3OCC(=O)OCc3cccnc3)c(Cl)cc2F)c1=O [I.7-277] 0

Try this molecule too: Cn1c(C(F)(F)F)cc(=O)n(-c2cc(Oc3ccccc3OCC(=O)OCCOC(F)(F)F)c(C#N)cc2F)c1=O [I.9-41] 0
